method.notes: Kinetic solubility in pH 7.4 phosphate buffer
Type: physicochemical
cond: read-out: Kinetic_solubility
parameter.measured: solubility kinetic

Q) Give the value of solubility kinetic reported for the following: `O=C1C(O)=C(c2ccccc2)C(=O)c2ccccc21`
A) < 500 µM

Q) Give the value of solubility kinetic reported for the following: `O=C1C(O)=C(I)C(=O)c2ccccc21`
A) < 300 µM

* * *

target.desc: P2X purinoceptor 7 (Homo sapiens)
Sequence (Q99572 whole entry): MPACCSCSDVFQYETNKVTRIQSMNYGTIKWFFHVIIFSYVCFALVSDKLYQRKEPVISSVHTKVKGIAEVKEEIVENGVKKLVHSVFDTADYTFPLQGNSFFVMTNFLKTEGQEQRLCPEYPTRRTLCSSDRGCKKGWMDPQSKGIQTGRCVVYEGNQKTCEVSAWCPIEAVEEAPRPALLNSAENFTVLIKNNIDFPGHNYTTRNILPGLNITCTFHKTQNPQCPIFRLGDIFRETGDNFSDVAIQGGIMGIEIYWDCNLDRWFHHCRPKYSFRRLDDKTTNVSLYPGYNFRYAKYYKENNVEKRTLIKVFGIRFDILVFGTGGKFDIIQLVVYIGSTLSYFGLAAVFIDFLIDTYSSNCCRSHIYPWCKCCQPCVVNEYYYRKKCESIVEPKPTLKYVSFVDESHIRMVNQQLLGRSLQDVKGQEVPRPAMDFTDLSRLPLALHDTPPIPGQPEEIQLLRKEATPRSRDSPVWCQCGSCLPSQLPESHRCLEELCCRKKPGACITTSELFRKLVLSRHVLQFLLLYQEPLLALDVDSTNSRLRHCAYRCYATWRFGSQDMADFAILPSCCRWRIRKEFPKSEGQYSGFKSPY
method.notes: Antagonist activity at human P2X7R expressed in HEK293 cells assessed as inhibition of ATP-induced […] uptake preincubated for 10 mins followed by ATP induction measured after 25 mins by fluorescence assay
parameter.measured: IC50 (nM)

Known IC50 results, listed for orientation:
O=C1C(O)=C(I)C(=O)c2ccccc21 = 71.2
O=C1C(O)=C(c2ccccc2)C(=O)c2ccccc21 = 22.4
CCOc1ccc(Nc2ccc(/C(=C3C=C/C(=[N+](/CC)Cc4cccc(S(=O)(=O)[O-])c4)C=C/3C)c3ccc(N(CC)Cc4cccc(S(=O)(=O)O)c4)cc3C)cc2)cc1 = 536

A = O=C1C(O)=C(Br)C(=O)c2ccccc21
B = COc1ccc(CC(=O)NC(N/C(=N/C#N)Nc2cccc3ncccc23)C(C)(C)C)cc1OC (stereo not given)
Q) Of A versus B , which is the one with smaller reported IC50? Answer with the label corresponding to your selection.
A) B
(B: 109 nM, A: 414 nM)
